B1: MATN2 (parent)
chain: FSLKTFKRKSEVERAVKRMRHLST

Variants of: B1
PROCEDURE_DETAILS: protein stability index of a GFP-peptide fusion (GPS, HEK-293T) (PSI 1-6); higher = more stable;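 note: lentivirally expressed fusions sorted by FACS into six bins by GFP to DsRed ratio, PSI derived from sequencing read proportions per bin multiplied by bin number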
SETUP_CONDITIONS: c terminus: a fixed tail appended
Label criterion met when protein stability index is at or above 2; otherwise label criterion not met.

Challenge: Is it the case that V12P has protein stability index reaching or exceeding 2?
Response given: criterion met

Challenge: Is it the case that F6N has protein stability index reaching or exceeding 2?
Response given: criterion met

Challenge: Is it the case that V16H has protein stability index reaching or exceeding 2?
Response given: criterion met

Challenge: Is it the case that K7N has protein stability index reaching or exceeding 2?
Response given: criterion met

Challenge: Is it the case that T24N has protein stability index reaching or exceeding 2?
Response given: criterion met

***
Challenge: Is it the case that F1A has protein stability index reaching or exceeding 2?
Response given: criterion met

Challenge: Is it the case that R18T has protein stability index reaching or exceeding 2?
Response given: criterion met

Challenge: Is it the case that S23C has protein stability index reaching or exceeding 2?
Response given: criterion not met

Challenge: Is it the case that T5R has protein stability index reaching or exceeding 2?
Response given: criterion met

Challenge: Is it the case that R18Y has protein stability index reaching or exceeding 2?
Response given: criterion met
